# Test system: L5178Y
# protocol: Cytotoxicity against parental mouse L5178Y cells assessed as inhibition of cell growth incubated for 24 hrs by MTT assay
# Type: functional, cell-based
reported endpoint: IC50

QUERY: Please give measured IC50 of the following entry: CN1CCN(c2nc(N)nc(C(C)(C)Sc3ccccc3)n2)CC1.Cl
RESULT: 68.8 µM

QUERY: Please give measured IC50 of the following entry: CCCC(Sc1ccccc1)c1nc(N)nc(N2CCN(C)CC2)n1.Cl (centres undefined)
RESULT: 15 µM

QUERY: Please give measured IC50 of the following entry: CCCC([Se]c1ccccc1)c1nc(N)nc(N2CCN(C)CC2)n1.Cl (centres undefined)
RESULT: 38.6 µM

QUERY: Please give measured IC50 of the following entry: CCC(SCc1ccccc1)c1nc(N)nc(N2CCN(C)CC2)n1 (centres undefined)
RESULT: 59.2 µM

QUERY: Please give measured IC50 of the following entry: CN1CCN(c2nc(N)nc(C(C)(C)Sc3ccc4ccccc4c3)n2)CC1
RESULT: 24.8 µM

QUERY: Please give measured IC50 of the following entry: CCCCC(Sc1ccccc1)c1nc(N)nc(N2CCN(C)CC2)n1.Cl (centres undefined)
RESULT: 15.5 µM

QUERY: Please give measured IC50 of the following entry: CCCCC(SCc1ccccc1)c1nc(N)nc(N2CCN(C)CC2)n1 (centres undefined)
RESULT: 19.7 µM

QUERY: Please give measured IC50 of the following entry: CN1CCN(c2nc(N)nc(CCCSc3ccc4ccccc4c3)n2)CC1.Cl
RESULT: 11.4 µM

QUERY: Please give measured IC50 of the following entry: CN1CCN(c2nc(N)nc(CCC[Se]c3ccccc3)n2)CC1.Cl
RESULT: 33.4 µM

QUERY: Please give measured IC50 of the following entry: CN1CCN(c2nc(N)nc(CCCSc3ccccc3)n2)CC1.Cl
RESULT: 30.1 µM

QUERY: Please give measured IC50 of the following entry: CN1CCN(c2nc(N)nc(C[Se]Cc3ccccc3)n2)CC1
RESULT: > 100 µM

QUERY: Please give measured IC50 of the following entry: CC(SCc1ccccc1)c1nc(N)nc(N2CCN(C)CC2)n1 (centres undefined)
RESULT: 91.8 µM

QUERY: Please give measured IC50 of the following entry: COc1cccc2c1C(=O)c1c(O)c3c(c(O)c1C2=O)C[C@@](O)(C(=O)CO)C[C@@H]3O[C@H]1C[C@H](N)[C@H](O)[C@H](C)O1
RESULT: 0.7 µM

QUERY: Please give measured IC50 of the following entry: CCCC(SCc1ccccc1)c1nc(N)nc(N2CCN(C)CC2)n1.Cl (centres undefined)
RESULT: 36 µM

* * *

What pIC50 was measured for each of the following?
# System: L5178Y
# protocol: Antiproliferative activity against multidrug resistant mouse L5178Y cells expressing ABCB1 assessed as inhibition of cell growth incubated for 72 hrs by MTT assay
# Assay type: functional, cell-based
The meaning of pIC50 here: minus log10 of the concentration in molar units.

QUERY: Please give measured pIC50 of the following entry: CN1CCN(c2nc(N)nc(C(C)(C)Sc3cccc4ccccc34)n2)CC1
RESULT: 4.61

QUERY: Please give measured pIC50 of the following entry: CCCCC(SCc1ccccc1)c1nc(N)nc(N2CCN(C)CC2)n1 (stereo unspecified)
RESULT: 4.55

QUERY: Please give measured pIC50 of the following entry: CN1CCN(c2nc(N)nc(CCC[Se]c3ccccc3)n2)CC1.Cl
RESULT: 4.94

QUERY: Please give measured pIC50 of the following entry: CN1CCN(c2nc(N)nc(CCCSc3ccc4ccccc4c3)n2)CC1.Cl
RESULT: 5.27

QUERY: Please give measured pIC50 of the following entry: CC(Sc1ccccc1)c1nc(N)nc(N2CCN(C)CC2)n1 (stereo unspecified)
RESULT: 4.16

QUERY: Please give measured pIC50 of the following entry: CN1CCN(c2nc(N)nc(CCCSCc3ccccc3)n2)CC1
RESULT: 4.29

* * *

# System: L5178Y
# protocol: Cytotoxicity against parental mouse L5178Y cells assessed as inhibition of cell growth incubated for 24 hrs by MTT assay
# Type: functional, cell-based
reported endpoint: IC50

QUERY: Please give measured IC50 of the following entry: CN1CCN(c2nc(N)nc(CSCc3ccccc3)n2)CC1
RESULT: > 100 µM

QUERY: Please give measured IC50 of the following entry: CN1CCN(c2nc(N)nc(CSc3ccccc3)n2)CC1
RESULT: > 100 µM

QUERY: Please give measured IC50 of the following entry: CC(Sc1ccccc1)c1nc(N)nc(N2CCN(C)CC2)n1 (stereo not drawn)
RESULT: > 100 µM

* * *

# protocol: Cytotoxicity against human skin fibroblast cells assessed as inhibition of cell growth incubated for 72 hrs by MTS assay
# Assay type: toxicity, cell-based
reported endpoint: IC50 at 72 h

QUERY: Please give measured IC50 at 72 h of the following entry: CCCC([Se]c1ccccc1)c1nc(N)nc(N2CCN(C)CC2)n1.Cl (centres undefined)
RESULT: > 100 µM

QUERY: Please give measured IC50 at 72 h of the following entry: CN1CCN(c2nc(N)nc(CCC[Se]c3ccccc3)n2)CC1.Cl
RESULT: > 100 µM

QUERY: Please give measured IC50 at 72 h of the following entry: CN1CCN(c2nc(N)nc(CCCSc3ccc4ccccc4c3)n2)CC1.Cl
RESULT: 79.1 µM

QUERY: Please give measured IC50 at 72 h of the following entry: CCC([Se]Cc1ccccc1)c1nc(N)nc(N2CCN(C)CC2)n1 (centres undefined)
RESULT: > 100 µM

* * *

# Tested on: L5178Y
# protocol: Antiproliferative activity against multidrug resistant mouse L5178Y cells expressing ABCB1 assessed as inhibition of cell growth incubated for 72 hrs by MTT assay
# Assay type: functional, cell-based
What pIC50 was measured for each of the following?
The meaning of pIC50 here: minus log10 of the concentration in molar units.

QUERY: Please give measured pIC50 of the following entry: CC(SCc1ccccc1)c1nc(N)nc(N2CCN(C)CC2)n1 (configuration not stated)
RESULT: 4.03

QUERY: Please give measured pIC50 of the following entry: CC(Sc1cccc2ccccc12)c1nc(N)nc(N2CCN(C)CC2)n1 (configuration not stated)
RESULT: 4.48

QUERY: Please give measured pIC50 of the following entry: CC(Sc1ccc2ccccc2c1)c1nc(N)nc(N2CCN(C)CC2)n1 (configuration not stated)
RESULT: 4.73

QUERY: Please give measured pIC50 of the following entry: CN1CCN(c2nc(N)nc(CCC[Se]Cc3ccccc3)n2)CC1
RESULT: 4.41

QUERY: Please give measured pIC50 of the following entry: CN1CCN(c2nc(N)nc(CCSCc3ccccc3)n2)CC1.Cl
RESULT: 4.49

QUERY: Please give measured pIC50 of the following entry: CCCCC(Sc1ccc2ccccc2c1)c1nc(N)nc(N2CCN(C)CC2)n1 (configuration not stated)
RESULT: 4.45

QUERY: Please give measured pIC50 of the following entry: CN1CCN(c2nc(N)nc(CCSc3ccccc3)n2)CC1
RESULT: 4.47

QUERY: Please give measured pIC50 of the following entry: CCC(Sc1ccccc1)c1nc(N)nc(N2CCN(C)CC2)n1.Cl (configuration not stated)
RESULT: 4.33

QUERY: Please give measured pIC50 of the following entry: CCC(Sc1cccc2ccccc12)c1nc(N)nc(N2CCN(C)CC2)n1 (configuration not stated)
RESULT: 4.51

QUERY: Please give measured pIC50 of the following entry: CCCC(SCc1ccccc1)c1nc(N)nc(N2CCN(C)CC2)n1.Cl (configuration not stated)
RESULT: 4.63

QUERY: Please give measured pIC50 of the following entry: CCC(Sc1ccc2ccccc2c1)c1nc(N)nc(N2CCN(C)CC2)n1 (configuration not stated)
RESULT: 4.56

QUERY: Please give measured pIC50 of the following entry: CCC([Se]Cc1ccccc1)c1nc(N)nc(N2CCN(C)CC2)n1 (configuration not stated)
RESULT: 4.93

QUERY: Please give measured pIC50 of the following entry: CCC(SCc1ccccc1)c1nc(N)nc(N2CCN(C)CC2)n1 (configuration not stated)
RESULT: 4.17

QUERY: Please give measured pIC50 of the following entry: CN1CCN(c2nc(N)nc(CSCc3ccccc3)n2)CC1
RESULT: 4.43

QUERY: Please give measured pIC50 of the following entry: CN1CCN(c2nc(N)nc(CCCSc3ccccc3)n2)CC1.Cl
RESULT: 4.54

QUERY: Please give measured pIC50 of the following entry: CCCCC(Sc1ccccc1)c1nc(N)nc(N2CCN(C)CC2)n1.Cl (configuration not stated)
RESULT: 4.76

QUERY: Please give measured pIC50 of the following entry: CCCC([Se]c1ccccc1)c1nc(N)nc(N2CCN(C)CC2)n1.Cl (configuration not stated)
RESULT: 5.22

QUERY: Please give measured pIC50 of the following entry: COc1cccc2c1C(=O)c1c(O)c3c(c(O)c1C2=O)C[C@@](O)(C(=O)CO)C[C@@H]3O[C@H]1C[C@H](N)[C@H](O)[C@H](C)O1
RESULT: 5.76

QUERY: Please give measured pIC50 of the following entry: CN1CCN(c2nc(N)nc(CSc3ccc4ccccc4c3)n2)CC1.Cl
RESULT: 4.87

QUERY: Please give measured pIC50 of the following entry: CN1CCN(c2nc(N)nc(C(C)(C)Sc3ccc4ccccc4c3)n2)CC1
RESULT: 4.41

QUERY: Please give measured pIC50 of the following entry: CCCC(Sc1ccccc1)c1nc(N)nc(N2CCN(C)CC2)n1.Cl (configuration not stated)
RESULT: 4.78

QUERY: Please give measured pIC50 of the following entry: CN1CCN(c2nc(N)nc(C(C)(C)Sc3ccccc3)n2)CC1.Cl
RESULT: 4.28

The values you see were collected from ChEMBL document CHEMBL5344405.
